From: patent US11702417B2

System: FD (familial dysautomonia) IKBKAP minigene, exon 20 inclusion, in HEK293T cells
Experiment Notes: Primary splicing assay (FD IKBKAP minigene, Firefly/Renilla luciferase reporter in HEK293T)
Assay type: cell-based, human
Study Conditions: Homo sapiens, HEK-293T; max efficacy in Primary Assay; Firefly/Renilla ratio, kinetin and DMSO as positive and negative controls; 24 hours of treatment; read-out: Emax (%)
Reported Endpoint: Emax (%)
One number for each entry, in %.

Clc1nc(NCc2ccncn2)c2nc(OC3CCC3)[nH]c2n1 = 197
CNc1nc2c(NCc3nccs3)nc(Cl)nc2[nH]1 = 122
c1cncc(CCNc2ncnc3[nH]cnc23)c1 = 35
Clc1nc(NCc2nccs2)c2c(Cl)c[nH]c2n1 = 83
Cc1nc2c(NCc3ccco3)nc(Cl)nc2[nH]1 = 159
O=C1OCCN1CCOc1nc2c(NCc3nccs3)nc(Cl)nc2[nH]1 = 4.8

// recorded Emax for CCCOc1nc2c(NCc3ccncn3)nc(Cl)nc2[nH]1 : 223

----------
Answer each item with its documented Emax.
Test system: FD (familial dysautomonia) IKBKAP minigene, exon 20 inclusion, in HEK293T cells
Experiment Notes: Primary splicing assay (FD IKBKAP minigene, Firefly/Renilla luciferase reporter in HEK293T)
Assay type: cell-based, human
Study Conditions: Homo sapiens, HEK-293T; max efficacy in Primary Assay; Firefly/Renilla ratio, kinetin and DMSO as positive and negative controls; 24 hours of treatment; read-out: Emax (%)

Clc1nc(NCc2nccs2)c2nc(OC3COC3)[nH]c2n1 = 119%
COCc1c[nH]c2nc(Cl)nc(NCc3ccco3)c12 = 20%
Clc1nc(NCc2ccco2)c2nc(OC3CNC3)[nH]c2n1 = 51%
CC#CCOc1nc2c(NCc3nccs3)nc(Cl)nc2[nH]1 = 144%
Clc1nc(NCc2ccncc2)c2cc[nH]c2n1 = 235%
Fc1nc(NCc2nccs2)c2cc[nH]c2n1 = 95%

Please supply Emax for each of the following items, keeping them in order.
1. CC(=O)Oc1c[nH]c2nc(Cl)nc(NCc3ccco3)c12
2. FC(F)(F)COc1nc2c(NCc3ccncc3)nc(Cl)nc2[nH]1

Reply:
43%
216%

Please supply Emax for each of the following items, keeping them in order.
1. COc1nc2c(N(CCO)Cc3nccs3)nc(Cl)nc2[nH]1
2. FCCn1ccc2c(NCc3ccncn3)nc(Cl)nc21
3. FCCn1ncc2c(NCc3ccco3)nc(Cl)nc21
4. N#Cc1cc2c(NCc3ccco3)nc(Cl)nc2[nH]1
5. Cc1cc2c(NCc3ccco3)nc(Cl)nc2n1CCO

Reply:
["69.2%", "231%", "197%", "95%", "151%"]

Please supply Emax for each of the following items, keeping them in order.
1. Clc1nc(NCc2ccco2)c2cc[nH]c2n1
2. Clc1cc(NCc2nccs2)n2nccc2n1
3. CC(Nc1nc(Cl)nc2[nH]ccc12)c1ccncc1 (stereo not drawn)
4. Clc1cc(NCc2ccco2)n2ncnc2n1
5. FC(F)(F)CN1CCC(n2ccc3c(NCc4ccco4)nc(Cl)nc32)CC1

Reply:
1: 173%; 2: 20%; 3: 31.5%; 4: 27%; 5: 11%

----------
System: FD (familial dysautomonia) IKBKAP minigene, exon 20 inclusion, in HEK293T cells
Experiment Notes: Primary splicing assay (FD IKBKAP minigene, Firefly/Renilla luciferase reporter in HEK293T)
Type: cell-based, human
Study Conditions: Homo sapiens, HEK-293T; max efficacy in Primary Assay; Firefly/Renilla ratio, kinetin and DMSO as positive and negative controls; 24 hours of treatment; read-out: Emax (%)
Protocol: As used herein, the expression “ECk” refers to the compound concentration at which the maximum kinetin efficacy (200 μM) is reached. […]
Lab note: anything with Emax below 20% is marked true (1); values at 20% or higher are marked false (0).

Some solved entries appear below for comparison.
COc1cc(CNc2nc(Cl)nc3[nH]cnc23)ccn1 [(241)] = true (1)
CNc1nc2c(NCc3ccco3)nc(Cl)nc2n1CCO [(202)] = false (0)
N#Cc1c[nH]c2nc(Cl)nc(NCc3ccncc3)c12 [(151)] = false (0)
Clc1cc(NCc2ccncn2)n2ccnc2n1 [(298)] = false (0)
COc1nc2c(NCc3ccncn3)nc(Cl)nc2[nH]1 [(261)] = false (0)

Ask: Hi there! Is Emax for FC(F)COc1nc2c(NCc3ccco3)nc(Cl)nc2[nH]1 [(384)] below 20%, do you know?
Reply: false (0)

Ask: Hi there! Is Emax for Fc1cccnc1CNc1nc(Cl)nc2[nH]ccc12 [(495)] below 20%, do you know?
Reply: true (1)

Ask: Hi there! Is Emax for Clc1nc(NCc2ccnnc2)c2nc[nH]c2n1 [(179)] below 20%, do you know?
Reply: false (0)
